# system: T1, human KDR-Fc fusion (R&D Systems #357-KD-050) (human, UniProt P35968 20-764)
# T1 construct: bought
# T1 sequence (P35968 20-764): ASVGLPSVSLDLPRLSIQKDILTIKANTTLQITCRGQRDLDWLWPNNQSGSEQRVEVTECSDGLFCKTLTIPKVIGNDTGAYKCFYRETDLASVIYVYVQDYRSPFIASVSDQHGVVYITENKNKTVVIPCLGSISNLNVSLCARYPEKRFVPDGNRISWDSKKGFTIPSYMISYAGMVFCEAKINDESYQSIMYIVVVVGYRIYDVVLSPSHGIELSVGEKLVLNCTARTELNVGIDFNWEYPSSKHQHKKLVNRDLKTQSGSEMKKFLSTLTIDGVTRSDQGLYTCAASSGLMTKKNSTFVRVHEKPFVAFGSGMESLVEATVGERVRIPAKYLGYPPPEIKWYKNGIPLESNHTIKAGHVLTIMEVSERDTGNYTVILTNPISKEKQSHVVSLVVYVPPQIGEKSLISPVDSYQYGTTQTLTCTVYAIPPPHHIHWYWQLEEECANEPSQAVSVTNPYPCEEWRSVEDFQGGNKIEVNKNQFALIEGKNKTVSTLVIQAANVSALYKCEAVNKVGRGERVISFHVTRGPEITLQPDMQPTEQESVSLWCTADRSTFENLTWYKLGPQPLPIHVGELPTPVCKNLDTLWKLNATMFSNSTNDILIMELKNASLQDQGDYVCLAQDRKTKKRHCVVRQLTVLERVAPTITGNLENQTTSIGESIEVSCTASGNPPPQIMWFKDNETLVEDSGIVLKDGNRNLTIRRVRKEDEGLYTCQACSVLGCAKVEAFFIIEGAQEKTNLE
# assay method text: fluorescence anisotropy, fluorescein-labeled peptide
Bridge positions count the residues as written; N and C are the ends.
Criterion: Kd strictly under 600 nM. Met: 1. Not met: 0.

Reference set (3 entries):
binder | answer label
Ac-AGDSWVECDAQTGFCYSFLYGTGGGK-NH2 (disulfide 8-15 (inferred); not fully specified) [SEQ ID NO:287] | 0
Ac-AGGGWVECRAETGHCQEYRLGTGGGK-NH2 (disulfide 8-15 (inferred); not fully specified) [SEQ ID NO:290] | 0
Ac-GDNWECGWSNMFQKEFCARPDPGGGK-NH2 (disulfide 6-17 (inferred); not fully specified) [SEQ ID NO:303] | 1

Could you now look at the following binder, please?
hey, is Kd for Ac-AQGDYVYWEIIELTGATDHTPPGGK-NH2 (not fully specified) [SEQ ID NO:307] lower than 600 nM or not? 1
